Recorded measurements of pIC50, one per entry
Biological target: Sodium-dependent noradrenaline transporter (Homo sapiens, UniProt P23975)
Sequence (P23975 whole entry): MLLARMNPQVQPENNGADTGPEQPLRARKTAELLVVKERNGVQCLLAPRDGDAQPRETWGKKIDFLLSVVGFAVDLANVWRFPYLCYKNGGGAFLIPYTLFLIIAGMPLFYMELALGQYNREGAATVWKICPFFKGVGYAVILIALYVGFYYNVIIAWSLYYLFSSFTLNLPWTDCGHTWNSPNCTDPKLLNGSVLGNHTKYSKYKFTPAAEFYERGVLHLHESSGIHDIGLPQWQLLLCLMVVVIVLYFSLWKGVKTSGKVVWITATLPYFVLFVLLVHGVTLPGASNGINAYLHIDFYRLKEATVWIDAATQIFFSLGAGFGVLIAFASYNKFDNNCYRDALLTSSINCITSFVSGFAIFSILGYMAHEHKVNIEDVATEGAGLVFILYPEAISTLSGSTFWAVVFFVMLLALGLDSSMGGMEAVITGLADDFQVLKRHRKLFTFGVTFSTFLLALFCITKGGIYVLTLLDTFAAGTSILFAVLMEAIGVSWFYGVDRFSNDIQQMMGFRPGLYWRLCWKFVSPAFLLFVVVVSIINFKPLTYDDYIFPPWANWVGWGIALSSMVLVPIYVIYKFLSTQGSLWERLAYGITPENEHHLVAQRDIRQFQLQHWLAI
Assay: Inhibition of human NET expressed in CHO-K1 cells assessed as inhibition of [3H]-norepinephrine reuptake measured after 45 mins by Microscintillation counting analysis
pIC50: −log10 of the molar value.
Value Kind: pIC50

| Compound | Result Value |
| --- | --- |
| COC(C)C(=O)NC[C@@H]1CNCCO[C@H]1c1ccc(Cl)c(F)c1.Cl (some centres not stated) | 8.06 |
| COCC(=O)NC[C@@H]1CNCCO[C@H]1c1ccc(Cl)c(F)c1.Cl | 8.49 |
| CCOCC(=O)NC[C@@H]1CNCCO[C@H]1c1ccc(Cl)c(F)c1.Cl | 8.48 |
| CCCC(=O)NC[C@@H]1CNCCO[C@H]1c1ccc(Cl)c(Cl)c1.Cl | 8.59 |
| Cl.[2H]C([2H])([2H])OCC(=O)NC[C@@H]1CNCCO[C@H]1c1ccc(Cl)c(F)c1 | 8.48 |
| COC(C)(C)C(=O)NC[C@@H]1CNCCO[C@H]1c1ccc(Cl)c(F)c1.Cl | 7.68 |
| CCC(=O)NC[C@@H]1CNCCO[C@H]1c1ccc(Cl)c(Cl)c1.Cl | 8.82 |
| COCC(=O)NC[C@@H]1CNCCO[C@H]1c1ccc(Cl)c(Cl)c1.Cl | 8.92 |
| Cl.O=C(NC[C@@H]1CNCCO[C@H]1c1ccc(Cl)c(F)c1)C1CCCO1 (some centres not stated) | 8.28 |
| COCCC(=O)NC[C@@H]1CNCCO[C@H]1c1ccc(Cl)c(F)c1.Cl | 8.41 |
| Cl.O=C(NC[C@@H]1CNCCO[C@H]1c1ccc(Cl)c(F)c1)C1COCCO1 (some centres not stated) | 8.59 |
| CC(C)OCC(=O)NC[C@@H]1CNCCO[C@H]1c1ccc(Cl)c(F)c1.Cl | 8.32 |

###

Target: CYP2D6 (Homo sapiens, UniProt P10635)
Experiment: Inhibition of CYP2D6 (unknown origin) expressed in insect cells assessed as reduction in 1'-hydroxybufuralol formation using bufuralol as substrate at 10 uM incubated for 60 mins by LC/MS/MS analysis
Assay type: ADME
Details: recombinant CYP2D6 expressed in insect cells, probe bufuralol
Recorded measurements of inhibition at 1 h, 10 µM, one per entry

| Molecule | Readout Units | inhibition at 1 h, 10 µM |
| --- | --- | --- |
| Cl.O=C(NC[C@@H]1CNCCO[C@H]1c1ccc(Cl)c(F)c1)C1COCCO1 (stereo partly drawn) | % | 66 |
| COCC(=O)NC[C@@H]1CNCCO[C@H]1c1ccc(Cl)c(F)c1.Cl | % | 48 |
| Cl.O=C(NC[C@@H]1CNCCO[C@H]1c1ccc(Cl)c(F)c1)C1CCCO1 (stereo partly drawn) | % | 80 |
| Cl.[2H]C([2H])([2H])OCC(=O)NC[C@@H]1CNCCO[C@H]1c1ccc(Cl)c(F)c1 | % | 49 |
| CCC(=O)NC[C@@H]1CNCCO[C@H]1c1ccc(Cl)c(Cl)c1.Cl | % | 41 |
| CCOCC(=O)NC[C@@H]1CNCCO[C@H]1c1ccc(Cl)c(F)c1.Cl | % | 79 |
| COC(C)(C)C(=O)NC[C@@H]1CNCCO[C@H]1c1ccc(Cl)c(F)c1.Cl | % | 42 |
| CCCC(=O)NC[C@@H]1CNCCO[C@H]1c1ccc(Cl)c(Cl)c1.Cl | % | 62 |

###

Biological target: UniProt:P31645
Experiment: Inhibition of human SERT expressed in CHO-K1 cells assessed as inhibition of [3H]-5-hydroxytryptamine reuptake measured after 20 mins by Microscintillation counting analysis
pIC50: −log10 of the molar value.

| Compound | Target | pIC50 |
| --- | --- | --- |
| CC(C)OCC(=O)NC[C@@H]1CNCCO[C@H]1c1ccc(Cl)c(F)c1.Cl | UniProt:P31645 | 6.41 |
| COCC(=O)NC[C@@H]1CNCCO[C@H]1c1ccc(Cl)c(Cl)c1.Cl | UniProt:P31645 | 7.15 |
| COC(C)(C)C(=O)NC[C@@H]1CNCCO[C@H]1c1ccc(Cl)c(F)c1.Cl | UniProt:P31645 | 6.28 |
| Cl.O=C(NC[C@@H]1CNCCO[C@H]1c1ccc(Cl)c(F)c1)C1CCCO1 (some centres not stated) | UniProt:P31645 | 6.70 |
| Cl.O=C(NC[C@@H]1CNCCO[C@H]1c1ccc(Cl)c(F)c1)C1COCCO1 (some centres not stated) | UniProt:P31645 | 6.27 |
| Cl.[2H]C([2H])([2H])OCC(=O)NC[C@@H]1CNCCO[C@H]1c1ccc(Cl)c(F)c1 | UniProt:P31645 | 6.17 |
| COCC(=O)NC[C@@H]1CNCCO[C@H]1c1ccc(Cl)c(F)c1.Cl | UniProt:P31645 | 6.36 |

###

Target: MDR1 (ABCB1, P-gp) (Homo sapiens, UniProt P08183)
Sequence (P08183 whole entry): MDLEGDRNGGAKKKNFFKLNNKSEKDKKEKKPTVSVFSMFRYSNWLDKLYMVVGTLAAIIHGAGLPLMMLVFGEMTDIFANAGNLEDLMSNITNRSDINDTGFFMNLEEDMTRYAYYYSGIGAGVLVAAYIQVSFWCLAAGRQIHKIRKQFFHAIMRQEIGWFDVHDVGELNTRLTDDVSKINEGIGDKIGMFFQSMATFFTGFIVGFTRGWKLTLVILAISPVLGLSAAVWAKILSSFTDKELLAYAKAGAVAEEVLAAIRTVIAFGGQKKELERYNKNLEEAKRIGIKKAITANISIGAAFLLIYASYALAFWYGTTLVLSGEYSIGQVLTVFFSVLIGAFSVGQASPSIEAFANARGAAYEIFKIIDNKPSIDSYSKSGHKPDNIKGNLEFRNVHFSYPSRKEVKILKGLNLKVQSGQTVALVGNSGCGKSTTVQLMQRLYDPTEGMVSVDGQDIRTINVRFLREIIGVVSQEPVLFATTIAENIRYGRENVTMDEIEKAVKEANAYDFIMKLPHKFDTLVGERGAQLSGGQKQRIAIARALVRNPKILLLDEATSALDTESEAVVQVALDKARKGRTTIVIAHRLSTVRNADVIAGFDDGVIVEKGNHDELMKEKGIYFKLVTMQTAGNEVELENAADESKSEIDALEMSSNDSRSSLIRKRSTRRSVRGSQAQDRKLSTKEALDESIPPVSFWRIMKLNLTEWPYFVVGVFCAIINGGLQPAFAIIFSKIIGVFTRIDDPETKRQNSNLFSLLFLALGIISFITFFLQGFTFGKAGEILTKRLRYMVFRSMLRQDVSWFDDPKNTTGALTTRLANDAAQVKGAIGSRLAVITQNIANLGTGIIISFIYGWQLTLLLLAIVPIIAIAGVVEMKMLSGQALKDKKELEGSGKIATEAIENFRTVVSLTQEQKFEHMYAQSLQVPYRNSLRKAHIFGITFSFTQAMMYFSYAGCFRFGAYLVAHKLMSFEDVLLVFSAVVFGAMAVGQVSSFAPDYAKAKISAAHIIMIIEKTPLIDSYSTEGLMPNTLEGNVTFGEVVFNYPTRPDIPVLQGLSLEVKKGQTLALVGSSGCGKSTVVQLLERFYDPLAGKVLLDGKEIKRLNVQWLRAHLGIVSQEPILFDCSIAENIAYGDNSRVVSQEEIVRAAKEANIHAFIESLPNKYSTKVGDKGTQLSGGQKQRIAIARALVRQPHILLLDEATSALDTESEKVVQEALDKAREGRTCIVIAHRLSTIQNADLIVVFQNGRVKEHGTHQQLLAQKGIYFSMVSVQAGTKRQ
Test: Substrate activity at human MDR1 expressed in LLC-PK1 cells assessed as efflux ratio of permeability from basolateral to apical side over apical to basolateral side at 10 uM measured after 2 hrs by LC/MS/MS analysis
Type: ADME, cell-based
Recorded measurements of efflux ratio at 2 h, 10 µM, one per entry
Value Kind: efflux ratio at 2 h, 10 µM

| Compound | Target | Value Kind | Result Value |
| --- | --- | --- | --- |
| COCC(=O)NC[C@@H]1CNCCO[C@H]1c1ccc(Cl)c(F)c1.Cl | MDR1 (ABCB1, P-gp) (Homo sapiens, UniProt P08183) | efflux ratio at 2 h, 10 µM | 2.1 |
| Cl.O=C(NC[C@@H]1CNCCO[C@H]1c1ccc(Cl)c(F)c1)C1CCCO1 (stereo not given in full) | MDR1 (ABCB1, P-gp) (Homo sapiens, UniProt P08183) | efflux ratio at 2 h, 10 µM | 3.5 |
| Cl.O=C(NC[C@@H]1CNCCO[C@H]1c1ccc(Cl)c(F)c1)C1COCCO1 (stereo not given in full) | MDR1 (ABCB1, P-gp) (Homo sapiens, UniProt P08183) | efflux ratio at 2 h, 10 µM | 3.6 |
| CCOCC(=O)NC[C@@H]1CNCCO[C@H]1c1ccc(Cl)c(F)c1.Cl | MDR1 (ABCB1, P-gp) (Homo sapiens, UniProt P08183) | efflux ratio at 2 h, 10 µM | 1.4 |
| COCC(=O)NC[C@@H]1CNCCO[C@H]1c1ccc(Cl)c(Cl)c1.Cl | MDR1 (ABCB1, P-gp) (Homo sapiens, UniProt P08183) | efflux ratio at 2 h, 10 µM | 2.1 |

###

Biological target: Sodium-dependent serotonin transporter (Homo sapiens)
Sequence (P31645 whole entry): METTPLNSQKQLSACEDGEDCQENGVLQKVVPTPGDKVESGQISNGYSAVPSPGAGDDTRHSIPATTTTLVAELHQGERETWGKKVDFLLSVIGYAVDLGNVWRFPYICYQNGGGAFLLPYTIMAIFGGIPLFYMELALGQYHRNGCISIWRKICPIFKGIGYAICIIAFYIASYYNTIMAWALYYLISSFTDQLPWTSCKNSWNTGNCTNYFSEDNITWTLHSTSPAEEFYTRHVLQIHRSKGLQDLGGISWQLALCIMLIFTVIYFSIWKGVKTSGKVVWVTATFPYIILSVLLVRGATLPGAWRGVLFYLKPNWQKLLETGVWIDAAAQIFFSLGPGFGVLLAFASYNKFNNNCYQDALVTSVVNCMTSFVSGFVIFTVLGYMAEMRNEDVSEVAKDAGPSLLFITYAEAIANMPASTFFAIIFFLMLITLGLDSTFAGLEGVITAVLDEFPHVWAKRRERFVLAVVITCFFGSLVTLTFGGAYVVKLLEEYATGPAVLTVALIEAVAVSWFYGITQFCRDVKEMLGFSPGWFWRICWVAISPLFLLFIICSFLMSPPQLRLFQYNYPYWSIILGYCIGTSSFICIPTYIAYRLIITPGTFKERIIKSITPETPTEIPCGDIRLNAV
Assay: Inhibition of human SERT expressed in CHO-K1 cells assessed as inhibition of [3H]-5-hydroxytryptamine reuptake measured after 20 mins by Microscintillation counting analysis
pIC50: −log10 of the molar value.
Recorded measurements of pIC50, one per entry

| Compound | pIC50 |
| --- | --- |
| CCC(=O)NC[C@@H]1CNCCO[C@H]1c1ccc(Cl)c(Cl)c1.Cl | 6.92 |
| COC(C)C(=O)NC[C@@H]1CNCCO[C@H]1c1ccc(Cl)c(F)c1.Cl (stereo not given in full) | 6.10 |
| CCCC(=O)NC[C@@H]1CNCCO[C@H]1c1ccc(Cl)c(Cl)c1.Cl | 7.21 |
| CCOCC(=O)NC[C@@H]1CNCCO[C@H]1c1ccc(Cl)c(F)c1.Cl | 6.66 |
| COCCC(=O)NC[C@@H]1CNCCO[C@H]1c1ccc(Cl)c(F)c1.Cl | 6.05 |

###

Molecular target: Cytochrome P450 2D6 (Homo sapiens, UniProt P10635)
Sequence (P10635 whole entry): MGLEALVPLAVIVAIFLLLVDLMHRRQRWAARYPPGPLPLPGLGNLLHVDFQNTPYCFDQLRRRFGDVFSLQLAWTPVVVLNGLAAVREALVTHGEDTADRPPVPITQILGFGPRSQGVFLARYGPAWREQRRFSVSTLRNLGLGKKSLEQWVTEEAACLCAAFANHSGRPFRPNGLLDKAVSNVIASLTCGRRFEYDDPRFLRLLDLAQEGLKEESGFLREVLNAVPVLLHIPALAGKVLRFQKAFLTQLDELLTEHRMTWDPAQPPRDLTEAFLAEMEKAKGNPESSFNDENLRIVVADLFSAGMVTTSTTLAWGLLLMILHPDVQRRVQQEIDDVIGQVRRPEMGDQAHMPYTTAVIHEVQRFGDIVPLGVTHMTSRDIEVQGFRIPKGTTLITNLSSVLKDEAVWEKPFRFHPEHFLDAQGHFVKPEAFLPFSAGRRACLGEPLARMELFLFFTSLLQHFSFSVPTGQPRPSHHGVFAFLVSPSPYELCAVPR
Assay: Drug metabolism assessed as CYP2D6 (unknown origin) expressed in microsomes-mediated metabolism by measuring metabolic rate at 1 uM incubated for 10 mins by UPLC analysis
Format: ADME, Microsome
Recorded measurements of Drug metabolism, one per entry
Value Kind: Drug metabolism (%/min/pmol)

| Structure As Smiles | Value Kind | Readout Units | Result Value |
| --- | --- | --- | --- |
| CC(C)OCC(=O)NC[C@@H]1CNCCO[C@H]1c1ccc(Cl)c(F)c1.Cl | Drug metabolism | %/min/pmol | 0.37 |
| COCC(=O)NC[C@@H]1CNCCO[C@H]1c1ccc(Cl)c(F)c1.Cl | Drug metabolism | %/min/pmol | 0.081 |
| Cl.[2H]C([2H])([2H])OCC(=O)NC[C@@H]1CNCCO[C@H]1c1ccc(Cl)c(F)c1 | Drug metabolism | %/min/pmol | 0.035 |
| CCOCC(=O)NC[C@@H]1CNCCO[C@H]1c1ccc(Cl)c(F)c1.Cl | Drug metabolism | %/min/pmol | 0.365 |

###

Recorded measurements of efflux ratio at 2 h, 10 µM, one per entry
Biological target: MDR1 (ABCB1, P-gp) (Homo sapiens)
Experiment: Substrate activity at human MDR1 expressed in LLC-PK1 cells assessed as efflux ratio of permeability from basolateral to apical side over apical to basolateral side at 10 uM measured after 2 hrs by LC/MS/MS analysis
Format: ADME, cell-based

| Compound | efflux ratio at 2 h, 10 µM |
| --- | --- |
| CCCC(=O)NC[C@@H]1CNCCO[C@H]1c1ccc(Cl)c(Cl)c1.Cl | 3 |
| COC(C)(C)C(=O)NC[C@@H]1CNCCO[C@H]1c1ccc(Cl)c(F)c1.Cl | 2.4 |
| COC(C)C(=O)NC[C@@H]1CNCCO[C@H]1c1ccc(Cl)c(F)c1.Cl (stereo partly drawn) | 1.9 |
| CCC(=O)NC[C@@H]1CNCCO[C@H]1c1ccc(Cl)c(Cl)c1.Cl | 4.8 |
| CC(=O)NC[C@@H]1CNCCO[C@H]1c1ccc(Cl)c(Cl)c1.Cl | 5 |
| Cl.[2H]C([2H])([2H])OCC(=O)NC[C@@H]1CNCCO[C@H]1c1ccc(Cl)c(F)c1 | 2.1 |
| COCCC(=O)NC[C@@H]1CNCCO[C@H]1c1ccc(Cl)c(F)c1.Cl | 12 |
| CC(C)OCC(=O)NC[C@@H]1CNCCO[C@H]1c1ccc(Cl)c(F)c1.Cl | 1.7 |
